Reference source for all entries: paper PMC7436000

System: human erythrocytes
experimental_details: Hemolysis of human erythrocytes
Format: cell-based
condition: concentration causing 20% hemolysis; 0.5% RBC in PBS, 1 h, 37 °C, absorbance 450 nm, triplicate
Peptide text beside a SMILES is read from it.
measured_property: HC20 (µM)
Give just the numeric value; µM need not be written.

# lookup: HC20 of CC[C@H](C)[C@H](N)C(=O)N[C@@H](CC(=O)O)C(=O)N[C@@H](Cc1c[nH]c2ccccc12)C(=O)N[C@@H](CCCCN)C(=O)N[C@@H](CCCCN)C(=O)N[C@@H](CC(C)C)C(=O)N[C@@H](CC(C)C)C(=O)N[C@@H](CC(=O)O)C(=O)N[C@@H](C)C(=O)N[C@@H](C)C(=O)N[C@@H](CCCCN)C(=O)N[C@@H](CCC(N)=O)C(=O)N[C@H](C(=O)N[C@@H](CC(C)C)C(N)=O)[C@@H](C)CC [MP1, reference compound] (H-IDWKKLLDAAKQIL-NH2)
37
